- Test system: Histophilus somni
- Experiment description: minimum inhibitory concentration (MIC)
- Measurement conditions: isolate (source animal id): 243
// minimum inhibitory concentration lookup, one value per entry

1) CCCN1C[C@H](C)[C@@H](O)[C@](C)(O)[C@@H](CC)OC(=O)[C@H](C)[C@@H](O[C@H]2C[C@@](C)(OC)[C@@H](O)[C@H](C)O2)[C@H](C)[C@@H](O[C@@H]2O[C@H](C)C[C@H](N(C)C)[C@H]2O)[C@](C)(O)C[C@H]1C [Gamithromycin]    ≤ 1 µg/mL
2) CCN1CCN(c2cc3c(cc2F)c(=O)c(C(=O)O)cn3C2CC2)CC1 [Enrofloxacin]    ≤ 0.12 µg/mL
3) C=C[C@]1(C)C[C@@H](OC(=O)CSCCN(CC)CC)[C@]2(C)[C@H](C)CC[C@]3(CCC(=O)[C@H]32)[C@@H](C)[C@@H]1O [Tiamulin]    2 µg/mL
4) CC[C@H]1OC(=O)C[C@@H](O)[C@H](C)[C@@H](O[C@@H]2O[C@H](C)[C@@H](O)[C@H](N(C)C)[C@H]2O)[C@@H](CCN2C[C@H](C)C[C@H](C)C2)C[C@@H](C)C(=O)/C=C/C(C)=C/[C@@H]1CO[C@@H]1O[C@H](C)[C@@H](O)[C@@H](OC)[C@H]1OC [Tilmicosin]    8 µg/mL
5) CC[C@H]1OC(=O)C[C@@H](O)[C@H](C)[C@@H](O[C@@H]2O[C@H](C)[C@@H](O)[C@H](N(C)C)[C@H]2O)[C@@H](CCN2CCCCC2)C[C@@H](C)C(=O)/C=C/C(C)=C/[C@@H]1CN1CCCCC1 [Tildipirosin]    ≤ 1 µg/mL
6) COc1cc(Cc2cnc(N)nc2N)cc(OC)c1OC.Cc1cc(NS(=O)(=O)c2ccc(N)cc2)no1 [trimethoprim-sulfamethoxazole]    ≤ 2 µg/mL
7) CN1C[C@@H]2C[C@H]1CN2c1cc2c(cc1F)c(=O)c(C(=O)O)cn2C1CC1 [Danofloxacin]    ≤ 0.12 µg/mL

Now consider the entry below.
Recorded minimum inhibitory concentration (compound CC1(C)S[C@@H]2[C@H](NC(=O)[C@H](N)c3ccccc3)C(=O)N2[C@H]1C(=O)O [Ampicillin] ): ≤ 0.25 µg/mL
